The entries that follow carry IC50 values tested on UniProt:P29466, drawn from several published reports.
Quantity measured: IC50 (µM)

O=C1C[C@H](NC(=O)[C@@H]2COC[C@@H]3C/C=C\C[C@H](NC(=O)c4nccc5ccccc45)C(=O)N32)C(O)O1 (stereo partly drawn)	0.003

[A] Cc1cc(Oc2ccccc2S(=O)(=O)N[C@H](C=O)C(=O)O)ccc1C(C)C
[B] CS(=O)(=O)c1c(F)cc(-c2cc(C(N)=O)c(Cl)nn2)cc1F
[C] Cc1cccc(C(=O)NNC(=O)C2(C(=O)N[C@H]3CC(=O)OC3O)CCC2)c1 (stereo partly drawn)
[D] CC(=O)N[C@@H](Cc1ccc(O)cc1)C(=O)N[C@H](C(=O)N[C@@H](C)C(=O)NC(CC(=O)O)C(=O)CCCCCc1ccccc1)C(C)C (stereo partly drawn)
[E] O=C1C[C@H](NC(=O)[C@@H]2CNC[C@@H]3CCCC[C@H](NC(=O)c4ccc5ccccc5c4)C(=O)N32)C(O)O1 (stereo partly drawn)
Q. Put the items in order so that reported IC50 rises from first to last. // list labels; follow requested order
A. E, D, C, B, A

====

Biological target: Caspase-1 (Homo sapiens, UniProt P29466)
Sequence (P29466 whole entry): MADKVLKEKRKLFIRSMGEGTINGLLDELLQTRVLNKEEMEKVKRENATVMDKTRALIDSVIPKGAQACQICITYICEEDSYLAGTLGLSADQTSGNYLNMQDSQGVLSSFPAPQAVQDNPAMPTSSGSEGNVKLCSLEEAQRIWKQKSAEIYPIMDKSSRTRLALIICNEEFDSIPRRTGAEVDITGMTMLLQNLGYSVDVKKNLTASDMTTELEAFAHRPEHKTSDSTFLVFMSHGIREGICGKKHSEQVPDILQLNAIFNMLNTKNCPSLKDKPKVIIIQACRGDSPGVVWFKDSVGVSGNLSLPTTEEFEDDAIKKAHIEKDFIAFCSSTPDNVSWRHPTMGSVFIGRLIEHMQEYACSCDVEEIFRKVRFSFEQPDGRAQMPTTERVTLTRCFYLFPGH
// read-out IC50, gathered for Caspase-1 (Homo sapiens, UniProt P29466) from published studies
Quantity measured: IC50 (nM)

Please review the following examples before continuing.
COc1cccc(CC(=O)N[C@H](C(=O)N[C@@H](CC(=O)O)C(=O)CSCc2ccccc2)C(C)C)c1	14000
Cc1cc2ncn(CCNC(=O)C[C@H](C(=O)N[C@H](C=O)CC(=O)O)C(C)C)c2cc1C	14.5

[1] CC(C)[C@H](NC(=O)OCc1ccccc1)C(=O)N[C@@H](C)C(=O)N[C@@H](CC(=O)O)C(=O)COC(=O)Cc1cccc2ccccc12
[2] CC(C)(C)[C@@H](NC(=O)c1ccc(N)c(Cl)c1)C(=O)N1CCC[C@H]1C(=O)N[C@H](/C=C/S(C)(=O)=O)CC(=O)O
Q. # argmax over IC50 for candidates 1 and 2 Answer format: the label of the selected item.
A. 2

====

// cross-source set; read-out = IC50; system = the protein given by its sequence
Sequence of the target: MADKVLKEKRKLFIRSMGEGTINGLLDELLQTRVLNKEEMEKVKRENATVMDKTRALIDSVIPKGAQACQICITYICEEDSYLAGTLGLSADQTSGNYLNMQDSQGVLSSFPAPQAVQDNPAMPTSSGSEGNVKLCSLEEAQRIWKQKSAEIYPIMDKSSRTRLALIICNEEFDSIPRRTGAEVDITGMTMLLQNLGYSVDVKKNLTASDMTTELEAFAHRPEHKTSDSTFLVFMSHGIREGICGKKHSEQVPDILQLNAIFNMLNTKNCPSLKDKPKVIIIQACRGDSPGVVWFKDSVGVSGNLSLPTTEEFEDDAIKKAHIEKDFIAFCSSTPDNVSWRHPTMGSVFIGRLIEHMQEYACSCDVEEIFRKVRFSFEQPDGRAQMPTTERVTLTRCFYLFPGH
Quantity measured: IC50 (nM)

CC(C)[C@H](NC(=O)c1ccccc1)C(=O)N(CC(=O)NC(CC(=O)O)C(=O)c1nc2ccccc2o1)C1Cc2ccccc2C1 (some centres undefined)	2

[A] Cc1cccc(Oc2ccccc2S(=O)(=O)N[C@H](C=O)C(=O)O)c1C
[B] O=C1C[C@H](NC(=O)[C@@H]2COC[C@@H]3C/C=C\C[C@H](NC(=O)c4ccc(C(F)(F)F)cc4)C(=O)N32)C(O)O1 (some centres undefined)
Q. // select label with min value of measured IC50 from [ A , B ] Return value: the label identifying the chosen record.
A. B
(B: 135 nM, A: 13000 nM)
